# TEST_NAME: Quantitative High-Throughput drug screen in 47 multiple myeloma cell lines against the NCATS MIPE library collection: PCM6_Riken cell viability assay (AID 1919870); also: nearly all actives have a fitted effect of over 30% in size
# CONDITIONS: CellTiter-Glo ATP, 48 h; series mostly up to 45.8 µM
Inconclusive results are not listed. The source made the active and inactive calls. Calls follow the shape of the dose curve; as a rule, active = well fitted cell-killing curve with a large enough effect; inconclusive = small, poorly fitted or top-dose-only effect, or effect the other way; inactive = no such curve, though single readings can be large or run the other way.
Select the correct class. Options are active, inactive and nothing else.

As a guide, the following entries are already answered.
compound="CC(=O)NC(C)c1ccc(Oc2ccc(OC(C)C)cc2)cc1 (stereo unspecified)" classification=active
compound="O=C1CCC(N2C(=O)c3ccccc3C2=O)C(=O)N1 (stereo unspecified)" classification=inactive
compound=Oc1cccc(-c2nc(N3CCOCC3)c3oc4ncccc4c3n2)c1 classification=active
compound=COc1ccc(-c2oc3cc(OC)ccc3c2C(=O)c2ccc(C#N)cc2)cc1 classification=active
compound=COc1ccc([C@@H]2CC(=O)c3c(O)cc(O[C@@H]4O[C@H](CO[C@@H]5O[C@@H](C)[C@H](O)[C@@H](O)[C@@H]5O)[C@@H](O)[C@H](O)[C@@H]4O)cc3O2)cc1O classification=inactive

Ask: Entry Cc1[nH]c(=O)c(C#N)cc1-c1ccncc1 : call = ?
Reply: active

Ask: // outcome(item) with item = Cc1cc(C=c2sc3nc4ccccc4n3c2=O)c(C)n1-c1ccccc1
Reply: inactive

Ask: GET /call?item= OCCC#Cc1nc(-c2ccc(F)cc2)c(-c2ccncc2)n1CCCc1ccccc1 returns the recorded outcome of this test.
Reply: active

Ask: Kindly provide the recorded test outcome for the following compound: COc1ccc(CC2=NN3C([C@@H](CCc4ccccc4)[C@@H](C)O)=NC(C)C3C(=O)N2)cc1OC (stereo partly specified)
Reply: inactive

Ask: Tell me the assay call for COCCNCCCn1c(C(=O)CF)c(-c2ccc(C)cc2)c2c(N)ncnc21 please.
Reply: active

Ask: Field: outcome | Entry: S=C(NCc1ccc2c(c1)OCO2)N1CCN(c2ncnc3c2oc2ccccc23)CC1
Reply: active

---

# TEST_NAME: Quantitative High-Throughput drug screen in 47 multiple myeloma cell lines against the NCATS MIPE library collection: MM1S_ATCC cell viability assay (AID 1918980); also: nearly all actives have a fitted effect of over 45% in size
# CONDITIONS: MM1S myeloma viability, CellTiter-Glo ATP luminescence, 48 h; series mostly up to 45.8 µM
Records with an inconclusive call do not appear. The source made the active and inactive calls. The call rests on the fitted dose curve; in most records, active means well fitted cell-killing curve with a large enough effect; inconclusive means small, poorly fitted or top-dose-only effect, or effect the other way; inactive means no such curve, though single readings can be large or run the other way.
A correct response names exactly one class from active, inactive

Ask: Hello, I am checking results. What call was entered for CCOc1cc(C=C2C(=O)N(c3ccccc3)N=C2C)cc(Cl)c1OCC(=O)OC ?
Reply: active

Ask: Hi, do you know how O=C(NOC[C@H](O)CO)c1ccc(F)c(F)c1Nc1ccc(I)cc1F came out in this test?
Reply: active

---

# TEST_NAME: Quantitative High-Throughput drug screen in 47 multiple myeloma cell lines against the NCATS MIPE library collection: ARP1_JJKsccF8 cell viability assay (AID 1918928; also: nearly all actives have a fitted effect of over 40% in size;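 as to viability: 100% = DMSO only wells and 0% = medium only wells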)
# CONDITIONS: ARP1 myeloma cells viability, CellTiter-Glo ATP, 48 h; series mostly up to 45.8 µM
Records with an inconclusive call do not appear. Activity calls are given as the source filed them. Calls come from the whole dose curve; as a rule, active = well fitted cell-killing curve with a large enough effect; inconclusive = small, poorly fitted or top-dose-only effect, or effect the other way; inactive = no such curve, though single readings can be large or run the other way.
Thanks in advance; please answer with one of these: yes = active, no = inactive

compound=Cc1cnc(NC(=O)C2=C(O)c3ccccc3S(=O)(=O)N2C)s1 classification=no
compound=c1ccc([C@H]2CN3CCSC3=N2)cc1 classification=no
compound=CCCCNc1cc(C(=O)O)cc(S(N)(=O)=O)c1Oc1ccccc1 classification=no

Ask: Just curious, what result did OC(CCN1CCCCC1)(c1ccccc1)C1CC2C=CC1C2 (stereo unspecified) get here?
Reply: no

Ask: Per the records of this test, what outcome belongs to NNCCc1ccccc1 ?
Reply: yes

Ask: What outcome does the record of this test show for Cc1cccc(-c2nn(C(=S)Nc3ccccc3)cc2-c2ccnc3ccccc23)n1 ?
Reply: no

---

# TEST_NAME: Cell Proliferation Assay against the HBL1 Cell Line (AID 651646);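 also: cells exposed to compound for 48 h before reading; 100% = DMSO and 0% = 9.2 µM bortezomib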
# CONDITIONS: HBL1 DLBCL cells; at 46.1 µM (top of the series) unless noted
MEASUREMENT_LABEL: viability, percent of control (%)
Use % as the unit, but write only the number.

compound="CN(C)c1ccc(C2Nc3ccc4ccccc4c3C3=C2C(=O)CC(C)(C)C3)cc1Br (stereo not given)" numeric_value=69.1
compound=C/C(=C\C(=O)Nc1ccccc1C(=O)O)c1ccc2ccccc2c1 numeric_value=70.3

Ask: Supply recorded viability, percent of control for OCCn1cc(-c2cnc3nnn(Cc4ccc5ncccc5c4)c3n2)cn1 here.
Reply: 79.7

Ask: Give reported viability, percent of control value for CCn1c(-c2nonc2N)nc2c(C#CC(C)(C)O)ncc(OC[C@H]3CCCNC3)c21
Reply: 70.2

---

# TEST_NAME: qHTS profiling for inhibitors of Plasmodium falciparum (DD2) proliferation (AID 743323)
# CONDITIONS: lower = more inhibition; at 28.7 µM (top of the series) unless noted
Listing of entries alongside the reported activity, percent of control.

Ask: Return activity, percent of control for the following compound: CCC(C)(C)C(=O)O[C@H]1C[C@@H](C)C=C2C=C[C@H](C)[C@H](CC[C@@H]3C[C@@H](O)CC(=O)O3)[C@H]21
Reply: 96.4% [at 9.63 µM]

Ask: Indicate its recorded activity, percent of control; the compound in question is CCOC(=O)C1=C[C@@]2(CC)CCCN3CCc4c(n1c1ccccc41)[C@H]32
Reply: 56.5% [at 18.4 µM]

Ask: Dear colleague, please send me the reported activity, percent of control for CC(c1cc2ccccc2s1)N(O)C(N)=O (stereo not drawn) when you can.
Reply: 101% [at 57.5 µM]

---

# TEST_NAME: Quantitative High-Throughput drug screen in 47 multiple myeloma cell lines against the NCATS MIPE library collection: EJM_DSMZ cell viability assay (AID 1918926; also: nearly all actives have a fitted effect of over 30% in size)
# CONDITIONS: EJM myeloma cell viability, CellTiter-Glo ATP, 48 h; series mostly up to 45.8 µM
Results filed as inconclusive are left out. The source made the active and inactive calls. The call rests on the fitted dose curve; in most records, active means well fitted cell-killing curve with a large enough effect; inconclusive means small, poorly fitted or top-dose-only effect, or effect the other way; inactive means no such curve, though single readings can be large or run the other way.
Please answer using one outcome listed in yes (1) = active, no (0) = inactive

# example entries with known answers
molecule=O=C(Nc1cccnc1)N1CCC(Cc2cccc(Oc3ccc(C(F)(F)F)cn3)c2)CC1 classification="yes (1)"
molecule=Cn1cnc([N+](=O)[O-])c1Sc1ncnc2nc[nH]c12 classification="no (0)"
molecule=C[C@]12CC[C@H](O)CC1=CC[C@@H]1[C@H]2CC[C@]2(C)C(c3cccnc3)=CC[C@H]12 classification="no (0)"
molecule="COc1cc(Oc2ccnc3cc(OC)c(OC)cc23)ccc1NC(=O)NC(C)c1nccs1 (centres undefined)" classification="no (0)"
molecule="Cc1ccccc1C(OCCN(C)C)c1ccccc1 (centres undefined)" classification="no (0)"
molecule=NNCCc1ccccc1 classification="no (0)"
molecule=N#CC[C@H](C1CCCC1)n1cc(-c2ncnc3[nH]ccc23)cn1 classification="yes (1)"
molecule="CC(c1cc2ccccc2s1)N(O)C(N)=O (centres undefined)" classification="no (0)"

Ask: Check the results log: what was the call for CCCC(CCC)C(=O)O ?
Reply: no (0)

Ask: Outcome logged for Cc1oncc1C(=O)Nc1ccc(C(F)(F)F)cc1 in this assay:
Reply: yes (1)

Ask: Test call for this molecule, please: C#Cc1cccc(Nc2ncnc3cc(OCCOC)c(OCCOC)cc23)c1
Reply: yes (1)

Ask: Outcome logged for O=C(Nc1nc2ccccc2n1CCN1CCOCC1)c1cccc([N+](=O)[O-])c1 in this assay:
Reply: yes (1)

Ask: Returns: the outcome recorded for Clc1ccc(Nc2nnc(Cc3ccncc3)c3ccccc23)cc1 in this assay.
Reply: yes (1)

Ask: Could you please tell me the result logged for COc1ccc(CCN2CCN(CCCc3ccccc3)CC2)cc1OC in this assay?
Reply: no (0)

Ask: Please indicate how the test categorized Cc1ccc(-n2nc(C(C)(C)C)cc2NC(=O)Nc2ccc(OCCN3CCOCC3)c3ccccc23)cc1 .
Reply: yes (1)

Ask: Outcome logged for CCCc1nc2c(C)cc(-c3nc4ccccc4n3C)cc2n1Cc1ccc(-c2ccccc2C(=O)O)cc1 in this assay:
Reply: no (0)

Ask: What is the recorded call for this molecule in the test? O=C(O)CCc1ccc(NCc2cccc(Oc3ccccc3)c2)cc1
Reply: no (0)

Ask: Recorded call for CNCc1ccc(-c2[nH]c3cc(F)cc4c3c2CCNC4=O)cc1 ?
Reply: no (0)

Ask: Record lookup: outcome of this test for COc1ccc2nc(S(=O)Cc3ncc(C)c(OC)c3C)[nH]c2c1 (centres undefined) ?
Reply: yes (1)

---

# TEST_NAME: High-throughput drug toxicity screening in the BPDCN cell line Cal-1 (AID 1224825);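 also: cells exposed to compounds for 48 h; 100% = DMSO and 0% = bortezomib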
# CONDITIONS: Cal-1 BPDCN cell viability, qHTS; at 45.8 µM (top of the series) unless noted
# Text: Blastic plasmacytoid dendritic cell neoplasm (BPDCN) is a rare, aggressive and largely incurable hematologic malignancy originating from plasmacytoid dendritic cells (pDCs). Although an initial response to chemotherapy is common, BPDCN prognosis is extremely poor and most patients relapse with drug-resistant disease leading to a median overall survival of ~1 year after diagnosis. […]
viability (% of control): recorded values
Dear colleague, please return just the value in %, with no unit written.

Before answering, review these 2 worked examples.
compound="NCCCC(N)(C(=O)O)C(F)F (stereo not given)" numeric_value=47.4
compound=Cc1cnc(Nc2ccc(OCCN3CCCC3)cc2)nc1Nc1cccc(S(=O)(=O)NC(C)(C)C)c1 numeric_value=72.4

Ask: Return viability (% of control) for the following compound: CNCc1ccc(-c2[nH]c3cc(F)cc4c3c2CCNC4=O)cc1
Reply: 15.1
